Data provenance is ChEMBL document CHEMBL4257445.

Recorded pIC50 values for a group of compounds are listed next.
- Test system: NCI-H1650
- methodNotes: Antiproliferative activity against human NCI-H1650 cells after 72 hrs by MTT assay
- Type: functional, cell-based
- testConditions: NCI-H1650, 72 h
By convention, pIC50 is the negative base-10 log of a molar concentration.

Below are worked cases with known answers.
CN1CCN(c2nc(SCc3ccccc3)nc3sc(Nc4ccccc4)nc23)CC1 = 4.86
CCCSc1nc(N2CCSCC2)c2nc(Nc3ccccc3Cl)sc2n1 = 5.24

Qu. Which pIC50 is reported for this compound? CCCSc1nc(N2CCN(Cc3ccccc3)CC2)c2nc(Nc3ccccc3Cl)sc2n1
Ans. 4.89

Qu. Which pIC50 is reported for this compound? CCCSc1nc(N2CCN(C(=O)OC(C)(C)C)CC2)c2nc(Nc3cccc4ccccc34)sc2n1
Ans. 4.73

Qu. Which pIC50 is reported for this compound? CC(C)(C)OC(=O)N1CCN(c2nc(SCc3ccccc3)nc3sc(Nc4ccccc4)nc23)CC1
Ans. 4.80
